# System: HEK-293T
# assayProcedure: Multiplex assay against HEK293T
# Assay type: toxicity, cell-based
# conditionParameters: human, 48 h, 10 µM, compound concentration 10 uM, replicate 2
Here the recorded Population Hoechst High Intensity Objects (%) is given for each entry.
Entry rule: numbers only, all in %.

# compound, experimentalValue
measured = [
    ("CN(C)C(=O)/C(C#N)=C/c1ccc(-c2nc3cnc4[nH]ccc4c3n2C2CCCCC2)o1", 21),
    ("CCn1c(=O)c(-c2ccc(Cl)cc2Cl)cc2cnc(Nc3ccc(N4CCNCC4)c(F)c3)nc21", 63),
    ("COc1ncc(-c2ccc3nccc(-c4ccnnc4)c3c2)cc1NS(=O)(=O)c1ccc(F)cc1F [OMIPALISIB]", 7),
]

State its Population Hoechst High Intensity Objects (%) on HEK-293T: Cc1nc(-c2ccc(-c3ccc(C(=O)N4CCc5cc6c(cc54)C4(CCN(C)CC4)CO6)cc3)c(C)c2)no1 [SB-224289]
17

Form field - read-out: Population Hoechst High Intensity Objects (%); system: HEK-293T; submitted item: OC1(c2ccc(Cl)cc2)CCN(Cc2c[nH]c3ccccc23)CC1
4

Form field - read-out: Population Hoechst High Intensity Objects (%); system: HEK-293T; submitted item: C[C@@]1(C(=O)Nc2ccc(F)nc2)CCCN1c1nc(Nc2cc(C3CC3)n[nH]2)c2cccn2n1 [BMS-754807]
7

Kindly state the measured Population Hoechst High Intensity Objects (%) obtained for CC[C@H](C)C(=O)O[C@H]1C[C@@H](C)C=C2C=C[C@H](C)[C@H](CC[C@@H]3C[C@@H](O)CC(=O)O3)[C@H]21 [LOVASTATIN] with HEK-293T.
4

---

# Test system: U2OS
# assayProcedure: Multiplex assay against U2OS
# Assay type: toxicity, cell-based
# conditionParameters: human, 12 h, 1 µM, compound concentration 1 uM, replicate 2
Decide by Population Membrane Permeable-Phenotype (%): equal to or exceeding 6% means Criterion met, less means Criterion not met.

Check out these entries, answers already filled in.
# molecule, systemName, labelValue
data = [
    ("Cc1nc(-c2cn3c(n2)-c2ccc(-c4cnn(C(C)(C)C(N)=O)c4)cc2OCC3)n(C(C)C)n1 [TASELISIB]", "U2OS", "Criterion met"),
    ("CN1CCN(c2ccc(OC(F)(F)F)c(Nc3ncc4c(n3)-c3c(c(C(N)=O)nn3CCO)CC4)c2)CC1 [ONVANSERTIB]", "U2OS", "Criterion not met"),
    ("c1cn2cc(-c3ccc4cn[nH]c4c3)nc(Nc3ccc(N4CCOCC4)cc3)c2n1 [ENTOSPLETINIB]", "U2OS", "Criterion met"),
    ("COc1ncc(-c2ccc3nccc(-c4ccnnc4)c3c2)cc1NS(=O)(=O)c1ccc(F)cc1F [OMIPALISIB]", "U2OS", "Criterion met"),
    ("C=CC(=O)Nc1cccc(C(=O)Nc2ccc(Nc3cc(-c4[nH]c(SC)nc4C)ccn3)cc2)c1", "U2OS", "Criterion not met"),
]

Has NC(=O)Nc1cc(-c2cccc(F)c2)sc1C(=O)N[C@H]1CCCNC1 [AZD-7762] a recorded Population Membrane Permeable-Phenotype (%) greater than or equal to 6%?
Criterion met

---

# System: U2OS
# assayProcedure: Multiplex assay against U2OS
# Format: toxicity, cell-based
# conditionParameters: human, 12 h, 10 µM, compound concentration 10 uM, replicate 1
Parameter: Population Mitochondria Different-Phenotype (%). Scope: all listed entries.
Reply with just the number (in %).

# molecule, experimentalValue
rows = [
    ("Cc1cc(C)cc(-c2cnc3cc(Cl)c(-c4cccc(O)c4)cc3c2OCCCN)c1", 50),
    ("COc1cc(-n2cnc3cc(-c4ccc(Cl)cc4)sc3c2=O)ccc1OCCN1CCCC1", 100),
    ("Cl.N#Cc1ccc2[nH]cc(CCCCN3CCN(c4ccc5oc(C(N)=O)cc5c4)CC3)c2c1 [VILAZODONE HYDROCHLORIDE]", 89),
    ("O=C1NCN(c2ccccc2)C12CCN(CCCOc1ccc(F)cc1)CC2 [SPIRAMIDE]", 74),
    ("CN(C)C(=O)/C(C#N)=C/c1ccc(-c2nc3cnc4[nH]ccc4c3n2C2CCCCC2)o1", 55),
    ("C=CC(=O)Nc1cccc(C(=O)Nc2ccc(Nc3cc(-c4[nH]c(SC)nc4C)ccn3)cc2)c1", 8),
]

Alright, here's another molecule for you.
So what's the measured Population Mitochondria Different-Phenotype (%) for this one? CN(C)C(=O)N[C@H]1CC[C@H](CCN2CCN(c3cccc(Cl)c3Cl)CC2)CC1.Cl [CARIPRAZINE HYDROCHLORIDE]
97
